system: U-251; assay: NCI tumour cell line growth inhibition, 48 h
Activity calls are given as the source filed them. Rule as the data show it: active = GI50 up to about 1.1 µM and inactive = higher.
Assign a class; possible classes are class 1 (active), class 0 (inactive)

Prompt line: Query: recorded result category for CN1CNc2nc(N)n(C)c(=O)c2C1 in this test
Response line: class 0

Prompt line: Outcome? CNC1=CC(=O)C2=C(C1=O)[C@H]1CC[C@]3(C)C(=O)CC[C@H]3[C@@H]1CC2
Response line: class 0

Prompt line: Just curious, what result did CC1CC(C)C2OC2(C)C[C@H](C)C(=O)NC(C)C(=O)N(C)[C@H](Cc2c(Br)[nH]c3ccccc23)C(=O)N[C@@H](c2ccc(O)cc2)CC(=O)O1 (stereo partly drawn) get here?
Response line: class 1

Prompt line: Returns: the outcome recorded for Cn1c(=O)c2ccccc2[n+]2c(-c3cccc([N+](=O)[O-])c3)csc12 in this assay.
Response line: class 0

Prompt line: Test call, this compound: COc1ccc(OC)c(CC2CCc3nc(N)nc(N)c3C2)c1 (stereo not drawn)
Response line: class 0

Prompt line: Assay outcome for COC1C(C)OC(OC2CC(C)(O)Cc3cc4c(c(O)c32)C(=O)c2c(O)cc3c(c2C4=O)OC2OC3(C)C(O)C(N(C)C)C2O)C(OC)C1(C)OC (stereo not drawn) : what was it?
Response line: class 1

Prompt line: Hi, do you know how COc1ccc(/C=C\c2cc(OC)c(OC)c(OC)c2)cc1OCC(=O)O came out in this test?
Response line: class 0

Prompt line: Outcome logged for CN1C(=O)C(Cl)(C(Cl)(Cl)S(=O)(=O)O)C(=O)c2ccccc21.c1ccncc1 (stereo not drawn) in this assay:
Response line: class 0

###

system: LOX IMVI; experiment: NCI tumour cell line growth inhibition, 48 h
The source made the active and inactive calls. No stated cut-off is given here; in the data, active = GI50 up to about 1.1 µM and inactive = higher.
Choose the fitting class; nothing outside 1.0 for active, 0.0 for inactive is accepted.

Prompt line: Assay outcome for O=C(Nc1cccc(C(F)(F)F)c1)O/N=C(/Cl)CCl : what was it?
Response line: 0.0

Prompt line: # fetch the recorded call for COc1ccc(-c2cc(=O)c3c(O)cc(O)cc3o2)c(OC)c1OC here
Response line: 0.0

Prompt line: I'd appreciate the recorded outcome for Cc1cc2c(cc1-c1cc3c(cc1C)C(C(C)C)=C(O)C(=O)/C3=C\Nc1cccc3c(N)cccc13)/C(=C/Nc1cccc3c(N)cccc13)C(=O)C(O)=C2C(C)C from this test.
Response line: 0.0

Prompt line: Test call for this molecule, please: O=S(=O)(NCn1ccc2ccccc21)c1ccccc1
Response line: 0.0

Prompt line: Which outcome was assigned to CC1(C)N=C(N)N=C(N)N1CCCCc1ccccc1 in this test?
Response line: 1.0

Prompt line: Test call, this molecule: Nc1ncn(C2OC(COP(=O)(O)O)C(O)C2O)c(=O)n1 (configuration not stated)
Response line: 0.0

Prompt line: Outcome logged for CN(C)c1cccc2c(S(=O)(=O)NCCCNCCN)cccc12 in this assay:
Response line: 0.0

Prompt line: Outcome? NC(=S)NS(=O)(=O)c1ccc(Cl)cc1Cl
Response line: 0.0

Prompt line: Can you look up the reported call for CN(C)c1ccc(/C=C2\N=C(NNc3ccccc3)NC2=O)cc1 for me?
Response line: 0.0

Prompt line: Fill in: this test's call for COC(=O)/C=C(\C)CC/C=C(\C)CCC(O)C(C)(C)O (configuration not stated) is ___
Response line: 0.0

Prompt line: Look up the recorded call for CC1=Nc2c(C#N)ncn2N=C(C)C1 in this test.
Response line: 0.0

Prompt line: Write down the call the test reported for this molecule. Item: C=C(CC)C(=O)c1ccc(OCC(=O)O)c(Cl)c1Cl
Response line: 0.0

Prompt line: What did this assay record as the result for CC(=O)n1nc(-c2[nH]c(C)c(-c3nn(C(C)=O)c(=S)o3)c2C)oc1=S ?
Response line: 0.0

Prompt line: Tell me the assay call for N=c1oc2ccc([N+](=O)[O-])cc2cc1C(=O)NCc1ccccc1 please.
Response line: 0.0

Prompt line: Outcome logged for Cc1cc(Cl)ccc1Nc1nc2c(s1)C(=O)c1ccccc1C2=O in this assay:
Response line: 0.0

Prompt line: Tell me the recorded outcome of this test for O=C1Nc2ccccc2/C1=C/c1ccccc1 .
Response line: 0.0

Prompt line: Kindly provide the recorded test outcome for the following molecule: c1ccc(CC2COC(c3cccs3)=N2)cc1 (configuration not stated)
Response line: 0.0

Prompt line: Short answer needed: outcome of this test for CCOC(=O)Cc1nc2ccc3c(c2nc1O)C(=O)c1ccccc1C3=O ?
Response line: 0.0

Prompt line: Recorded call for Cc1nc(C(N)=O)c(N)n1CCN1CCN(C(=O)CCCCCCCCCCNC2NC=Nc3[nH]cnc32)CC1 (configuration not stated) ?
Response line: 0.0

Prompt line: I'd appreciate the recorded outcome for CCOC(=O)CCC1(C(=O)OCC)CCCC1=O (configuration not stated) from this test.
Response line: 0.0

Prompt line: Status in this test for CSc1nnc(SCc2nn3c(=O)cc(C)nc3s2)s1 ?
Response line: 0.0

Prompt line: Recorded test outcome, item O=C1Nc2ccccc2/C1=C\c1c(Cl)nc2n1CCS2
Response line: 0.0

Prompt line: Recorded test call requested for CCC(C)SC1SCC2C(=O)N(C)C3(CC3C)C(=O)OCC(NC(=O)c3nc4ccccc4cc3O)C(=O)NC(C)C(=O)N(C)C1C(=O)N(C)C1(CC1C)C(=O)OCC(NC(=O)c1nc3ccccc3cc1O)C(=O)NC(C)C(=O)N2C (configuration not stated)
Response line: 1.0

Prompt line: Hi, do you know how CC1=CC(=O)C[C@]2(C)[C@@H](O)CC(C(C)CO)C[C@@H]12 (some centres not stated) came out in this test?
Response line: 0.0

Prompt line: Called result for O=[N+]([O-])c1cc(Cl)ccc1Sc1ccccc1
Response line: 0.0

Prompt line: I would be grateful if you could indicate the recorded call for CCCCCC(/C=C/[C@@H]1[C@@H](C(O)CCCCCC(=O)OC)C(=O)C[C@H]1O[Si](C)(C)C(C)(C)C)OCOCCOC (some centres not stated) .
Response line: 0.0

Prompt line: Could you check what this test reported for O=C(CSc1nnc(-c2ccc(/N=C\c3ccc(Cl)cc3)cc2)o1)Nc1ccccc1 ?
Response line: 0.0

Origin of measurements: ChEMBL document CHEMBL1201862
